Entry source: PubChem BioAssay AID651599

- target.desc: Tumor susceptibility gene 101 protein (Homo sapiens)
- measurement.notes: qHTS Assay for Iinhibitors of HIV-1 Budding by Blocking the Interaction of PTAP/TSG101: Hit Validation in TR assay
- test.parameters: Tsg101 binding domain + Texas Red-labeled PTAP peptide, fluorescence polarization, 20 min; series mostly up to 57.5 µM
Results filed as inconclusive are left out. Activity calls are given as the source filed them. The call rests on the fitted dose curve; in most records, active means well fitted inhibition curve with a large enough effect; inconclusive means small, poorly fitted or top-dose-only effect; inactive means no such curve, though single readings can be large or run the other way.
measured.attribute: outcome

Reference set (5 entries):
CCCN1C(=O)/C(=C\C=C2\N(CC)c3ccccc3C2(C)C)SC1=S    inactive
Oc1[nH]c2ccccc2c1N=Nc1ccccc1    inactive
CC(=O)Nc1ccc2nc3c(=O)[nH]c(=O)[nH]c3nc2c1    inactive
COc1cccc(/C(O)=C/c2nc3ccc(C(=O)NCCc4ccc(Cl)cc4)cc3[nH]c2=O)c1    inactive
CCOC(=O)Cn1c(=O)c(-c2cc(Br)ccc2N)nc2ccccc21    inactive

State recorded outcome with Tumor susceptibility gene 101 protein (Homo sapiens), entry C=CCOc1ccc(C2OC34CCCCC3C(C#N)(C#N)C2(C#N)C(=N)O4)cc1 (stereo not drawn) , no comment. inactive

State recorded outcome with Tumor susceptibility gene 101 protein (Homo sapiens), entry O=C(C1=NN(c2ccccc2)C2C(=O)N(c3ccccc3)C(=O)C12)c1ccccc1 (stereo not drawn) , no comment. inactive

State recorded outcome with Tumor susceptibility gene 101 protein (Homo sapiens), entry "Cc1nc2nc(-c3cccs3)cn2nc1C" , no comment. inactive

State recorded outcome with Tumor susceptibility gene 101 protein (Homo sapiens), entry "Cn1cc(/C=C2\SC(=S)N(NC(=O)c3ccccc3)C2=O)c2ccccc21" , no comment. inactive

State recorded outcome with Tumor susceptibility gene 101 protein (Homo sapiens), entry "COC(=O)c1cc2c(N)c(C(=O)c3ccc(Cl)cc3)sc2nc1C(OC)OC" , no comment. inactive

###

- target.desc: Tumor susceptibility gene 101 protein (Homo sapiens) (UniProt Q99816)
- Sequence (Q99816 whole entry, looked up): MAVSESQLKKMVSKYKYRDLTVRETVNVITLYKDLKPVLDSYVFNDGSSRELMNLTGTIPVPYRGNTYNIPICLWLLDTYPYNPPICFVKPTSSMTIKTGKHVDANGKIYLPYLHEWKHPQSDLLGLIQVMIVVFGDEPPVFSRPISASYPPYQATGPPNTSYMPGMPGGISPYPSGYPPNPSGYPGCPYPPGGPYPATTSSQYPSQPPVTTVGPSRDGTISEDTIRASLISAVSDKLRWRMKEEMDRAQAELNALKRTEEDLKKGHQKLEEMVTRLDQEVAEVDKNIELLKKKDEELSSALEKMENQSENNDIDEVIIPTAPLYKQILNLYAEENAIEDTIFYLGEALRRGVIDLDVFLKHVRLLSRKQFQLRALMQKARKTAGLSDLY
- measurement.notes: qHTS Assay for Iinhibitors of HIV-1 Budding by Blocking the Interaction of PTAP/TSG101: Hit Validation in TR assay
- test.parameters: Tsg101 binding domain + Texas Red-labeled PTAP peptide, fluorescence polarization, 20 min; series mostly up to 57.5 µM
Inconclusive results are not listed. The source made the active and inactive calls. Calls follow the shape of the dose curve; as a rule, active = well fitted inhibition curve with a large enough effect; inconclusive = small, poorly fitted or top-dose-only effect; inactive = no such curve, though single readings can be large or run the other way.
Output constraint: value belongs to yes = active, no = inactive

Please review the entries below; each comes with its answer.
CCOC(=O)c1cnc2ccc(OC)cc2c1Nc1ccc(N2CCN(C)CC2)cc1    no
CCOC(=O)C1CCCN(c2nc3ccccc3nc2C(C#N)C(=O)NCc2ccccc2)C1 (stereo not given)    no
COc1cccc2c1C(=O)c1c(O)c3c(c(O)c1C2=O)C[C@](O)(C(C)=O)C[C@H]3O[C@@H]1C[C@@H](N)[C@@H](O)[C@@H](C)O1    no

Hi team, can someone confirm the assay call for "CC(C)(C)N=Cc1c(O)ccc2oc3c(c12)CCCC3" ? no

Hi team, can someone confirm the assay call for Clc1ccc(C2=CC(c3ccco3)n3ncnc3N2)cc1 (stereo not given) ? no

Hi team, can someone confirm the assay call for "Cc1nn(C)c(C)c1N1C(=O)c2cccc3c(N)ccc(c23)C1=O" ? no

Hi team, can someone confirm the assay call for "CCCCCCN1C=CC=C/C1=C/C=C(C#N)C#N" ? no

Hi team, can someone confirm the assay call for "Cc1oc2cc(O)ccc2c(=O)c1-c1nncn1-c1ccccc1" ? no

###

- target.desc: Tumor susceptibility gene 101 protein (Homo sapiens) (UniProt Q99816)
- measurement.notes: qHTS Assay for Iinhibitors of HIV-1 Budding by Blocking the Interaction of PTAP/TSG101: Hit Validation in TR assay
- test.parameters: Tsg101 binding domain + Texas Red-labeled PTAP peptide, fluorescence polarization, 20 min; series mostly up to 57.5 µM
Records with an inconclusive call do not appear. Active and inactive are the calls of the source. The call rests on the fitted dose curve; in most records, active means well fitted inhibition curve with a large enough effect; inconclusive means small, poorly fitted or top-dose-only effect; inactive means no such curve, though single readings can be large or run the other way.
Output constraint: value belongs to class 1 for active, class 0 for inactive

Please review the entries below; each comes with its answer.
CS(=O)(=O)Nc1nc2n(n1)C(c1ccccc1)C=C(c1ccc(Br)cc1)N2 (configuration not stated)    class 0
CCOC(=O)Cn1c(=NC(=O)c2ccc([N+](=O)[O-])s2)sc2ccccc21    class 0

Hi team, can someone confirm the assay call for "Nc1c(C(=O)c2cccs2)sc2nsc(SCCN3CCCCC3)c12" ? class 0

Hi team, can someone confirm the assay call for CCCCOc1ccc(C2OC34CCCCC3C(C#N)(C#N)C2(C#N)C(=N)O4)cc1 (configuration not stated) ? class 0

Hi team, can someone confirm the assay call for "CC1CCN(Cc2c(O)ccc3c2O/C(=C\c2ccco2)C3=O)CC1" ? class 0

Hi team, can someone confirm the assay call for COc1ccc(N(C(=O)c2snc(C(N)=O)c2N)C(C(=O)NC2CCCC2)c2ccc3ncccc3c2)cc1 (configuration not stated) ? class 0

Hi team, can someone confirm the assay call for Fc1ccc(C2=CC(c3ccc(Br)o3)n3ncnc3N2)cc1 (configuration not stated) ? class 0

Hi team, can someone confirm the assay call for "Cc1ccc(N=Cc2c(O)ccc3ccccc23)cc1F" ? class 0

Hi team, can someone confirm the assay call for "CCCCCOc1ccc(/C=c2\sc3nc(=O)c(-c4ccccc4)nn3c2=O)cc1OC" ? class 0

Hi team, can someone confirm the assay call for "Cc1cc[n+](-c2[nH]c(=O)sc2/C=N/NC([S-])=Nc2ccccc2)cc1C" ? class 0

Hi team, can someone confirm the assay call for "Cc1ccccc1N1C(=O)c2cccc3c(N(C)CCO)ccc(c23)C1=O" ? class 1

###

- target.desc: Tumor susceptibility gene 101 protein (Homo sapiens) (UniProt Q99816)
- measurement.notes: qHTS Assay for Iinhibitors of HIV-1 Budding by Blocking the Interaction of PTAP/TSG101: Hit Validation in TR assay
- test.parameters: Tsg101 binding domain + Texas Red-labeled PTAP peptide, fluorescence polarization, 20 min; series mostly up to 57.5 µM
Records with an inconclusive call do not appear. Activity calls are given as the source filed them. Calls come from the whole dose curve; as a rule, active = well fitted inhibition curve with a large enough effect; inconclusive = small, poorly fitted or top-dose-only effect; inactive = no such curve, though single readings can be large or run the other way.
Output constraint: value belongs to active, inactive

Hi team, can someone confirm the assay call for CN1CCc2c(sc3c2C(=O)NC(c2ccco2)N3)C1 (stereo unspecified) ? inactive

Hi team, can someone confirm the assay call for CC(=O)c1ccc(N2C(=O)C3C(C2=O)C(C(=O)c2ccc(Cl)cc2)N2CCCC32)cc1 (stereo unspecified) ? inactive

Hi team, can someone confirm the assay call for CCCCNC(=O)C(C#N)c1nc2ccccc2nc1N1CCN(Cc2ccc3c(c2)OCO3)CC1 (stereo unspecified) ? inactive

Hi team, can someone confirm the assay call for CC1CCCN(c2nc3ccccc3nc2C(C#N)S(=O)(=O)c2ccccc2)C1 (stereo unspecified) ? inactive

Hi team, can someone confirm the assay call for "CN(N=Nc1ccc([N+](=O)[O-])cc1)c1ccccc1" ? inactive

###

- target.desc: Tumor susceptibility gene 101 protein (Homo sapiens)
- measurement.notes: qHTS Assay for Iinhibitors of HIV-1 Budding by Blocking the Interaction of PTAP/TSG101: Hit Validation in TR assay
- test.parameters: Tsg101 binding domain + Texas Red-labeled PTAP peptide, fluorescence polarization, 20 min; series mostly up to 57.5 µM
Results filed as inconclusive are left out. Active and inactive are the calls of the source. Calls follow the shape of the dose curve; as a rule, active = well fitted inhibition curve with a large enough effect; inconclusive = small, poorly fitted or top-dose-only effect; inactive = no such curve, though single readings can be large or run the other way.
Output constraint: value belongs to y = active, n = inactive

Please review the entries below; each comes with its answer.
ClCc1nc2ccccc2n1Cc1ccccc1    n
CSC1=NSC2=NC(=O)/C(=C/c3coc4ccccc4c3=O)C(=N)N12    n
COc1ccc(C2C(C(=O)c3cccs3)=C(O)C(=O)N2c2nnc(C)s2)cc1OC (stereo unspecified)    n
O=C(CCN1C(=O)/C(=C/c2ccco2)SC1=S)Nc1ccc(O)cc1C(=O)O    n
N=C1/C(=C/c2coc3ccccc3c2=O)C(=O)N=C2SC(c3ccco3)=NN12    n
COc1ccc(-c2onc3ccc(C(C)=O)cc23)cc1    n
CCCCNc1ccc2c3c(cccc13)C(=O)N(CCCC)C2=O    n
CCN(CC)c1ccc(/C=C(\C#N)C(=O)c2ccc(Br)cc2)cc1    n

Turning to the following molecule.
Hi team, can someone confirm the assay call for "Nc1ccc(-c2c3ccc(=O)cc-3oc3cc(O)ccc23)c(C(=O)O)c1" ? n

###

- target.desc: Tumor susceptibility gene 101 protein (Homo sapiens) (UniProt Q99816)
- measurement.notes: qHTS Assay for Iinhibitors of HIV-1 Budding by Blocking the Interaction of PTAP/TSG101: Hit Validation in TR assay
- test.parameters: Tsg101 binding domain + Texas Red-labeled PTAP peptide, fluorescence polarization, 20 min; series mostly up to 57.5 µM
Records with an inconclusive call do not appear. Activity calls are given as the source filed them. Calls follow the shape of the dose curve; as a rule, active = well fitted inhibition curve with a large enough effect; inconclusive = small, poorly fitted or top-dose-only effect; inactive = no such curve, though single readings can be large or run the other way.
Output constraint: value belongs to active, inactive

O=C(NC1CC1)c1cccc2c1C(=O)c1ccc(N3CCC(Cc4ccccc4)CC3)cc1S2(=O)=O    inactive
CCCCOC(=O)c1ccc(NC(=O)/C(C#N)=C/c2ccc(-c3ccccc3)o2)cc1    inactive
c1ccc(-c2cn3nc(-c4ccccc4)c(-c4ccccc4)nc3n2)cc1    inactive

Hi team, can someone confirm the assay call for "CC1CCN(c2ccc3c(c2)S(=O)(=O)c2cccc(C(=O)NCc4cccc(F)c4)c2C3=O)CC1" ? inactive

Hi team, can someone confirm the assay call for "C=CCn1c(=O)/c(=C/c2ccc(C)o2)s/c1=C(/C#N)C(=O)c1ccccc1" ? inactive

Hi team, can someone confirm the assay call for COc1ccccc1NC(=O)C(C)OC(=O)C1CC(=O)N(c2ccc3c(c2)OCCO3)C1 (configuration not stated) ? inactive

Hi team, can someone confirm the assay call for "O=c1[nH]c(-[n+]2ccccc2)c(/C=N/NC([S-])=Nc2ccccc2)s1" ? inactive

Hi team, can someone confirm the assay call for "Oc1c(C=Nc2ccccc2)sc2ccccc12" ? active

Hi team, can someone confirm the assay call for "Cc1c2ccccc2nc2c(F)c(NCCO)c(F)c(F)c12" ? inactive
